# Target or test system: T1, rHuman ErbB2/Fc Chimera, CF (human, UniProt P04626 23-652)
# T1 construct: Bought from R&D Systems; also called human epidermal growth factor 2 receptor; not shown: Fc of the bought chimera
# Method notes: ECL Multispot (MSD) assay; antigen spotted on plate, Fab in solution;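 note: fab bound 1 h at 20 °C, detected by TAG-labelled antibody electrochemiluminescence, signal relative to each well's blank, ratio of 4 or more marks a hit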
Quantity name: ECL signal
Just the number, please, no unit attached.

Binder: Fab VH1-46_IGHD6-6*01_IGHJ1*01 S102A/S103P/S104F/H111F (APFF) & L6_IGKJ1*01 S28K (Fab, V domains shown, Fab made in E. coli; the variable domains were cloned into Plasmid A (CH1, His and Flag tags) and Plasmid C (kappa CL); also called APFF / S28K) VH: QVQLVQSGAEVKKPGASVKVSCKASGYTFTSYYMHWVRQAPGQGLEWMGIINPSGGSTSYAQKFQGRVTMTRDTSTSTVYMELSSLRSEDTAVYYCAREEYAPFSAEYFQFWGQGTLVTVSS VL: EIVLTQSPATLSLSPGERATLSCRASQKVSSYLAWYQQKPGQAPRLLIYDASNRATGIPARFSGSGSGTDFTLTISSLEPEDFAVYYCQQRSNWPPWTFGQGTKVEIKR
ECL signal: 270

Binder: Fab VH1-46_IGHD6-6*01_IGHJ1*01 S102A/S103P/S104F/H111F (APFF) & L6_IGKJ1*01 S28P (Fab, V domains shown, Fab made in E. coli; the variable domains were cloned into Plasmid A (CH1, His and Flag tags) and Plasmid C (kappa CL); also called APFF / S28P) VH: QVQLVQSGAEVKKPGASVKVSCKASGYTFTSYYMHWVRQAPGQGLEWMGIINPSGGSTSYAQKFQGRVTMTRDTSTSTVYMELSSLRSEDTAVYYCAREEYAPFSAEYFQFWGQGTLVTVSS VL: EIVLTQSPATLSLSPGERATLSCRASQPVSSYLAWYQQKPGQAPRLLIYDASNRATGIPARFSGSGSGTDFTLTISSLEPEDFAVYYCQQRSNWPPWTFGQGTKVEIKR
ECL signal: 427

Next:
Reported ECL signal ( Fab VH1-46_IGHD6-6*01_IGHJ1*01 S102A/S103P/S104F/H111F (APFF) & L6_IGKJ1*01 S28A (Fab, V domains shown, Fab made in E. coli; the variable domains were cloned into Plasmid A (CH1, His and Flag tags) and Plasmid C (kappa CL); also called APFF / S28A) VH: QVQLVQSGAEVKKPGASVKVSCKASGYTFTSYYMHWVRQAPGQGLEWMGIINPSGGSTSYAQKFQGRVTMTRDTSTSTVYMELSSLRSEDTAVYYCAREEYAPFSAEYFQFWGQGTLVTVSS VL: EIVLTQSPATLSLSPGERATLSCRASQAVSSYLAWYQQKPGQAPRLLIYDASNRATGIPARFSGSGSGTDFTLTISSLEPEDFAVYYCQQRSNWPPWTFGQGTKVEIKR ) = 348

All values here come from patent US20120316071A1.
